# System: UniProt O15530
# Sequence (O15530 whole entry): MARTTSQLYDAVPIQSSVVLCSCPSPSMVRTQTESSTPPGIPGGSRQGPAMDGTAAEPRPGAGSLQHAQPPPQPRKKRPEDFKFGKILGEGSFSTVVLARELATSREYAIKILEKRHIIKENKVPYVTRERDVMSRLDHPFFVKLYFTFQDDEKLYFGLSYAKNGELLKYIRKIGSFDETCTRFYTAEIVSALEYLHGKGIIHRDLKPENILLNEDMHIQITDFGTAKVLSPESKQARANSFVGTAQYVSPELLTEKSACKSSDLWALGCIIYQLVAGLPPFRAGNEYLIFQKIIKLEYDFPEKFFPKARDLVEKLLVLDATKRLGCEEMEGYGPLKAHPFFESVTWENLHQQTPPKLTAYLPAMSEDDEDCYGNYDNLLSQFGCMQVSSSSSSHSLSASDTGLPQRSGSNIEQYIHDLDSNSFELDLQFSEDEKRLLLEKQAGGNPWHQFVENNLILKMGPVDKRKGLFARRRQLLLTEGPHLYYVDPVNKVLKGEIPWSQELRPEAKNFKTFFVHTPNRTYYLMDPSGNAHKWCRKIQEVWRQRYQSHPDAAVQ
# Procedure Text: Inhibition of PDK1 (unknown origin) in presence of 25 uM ATP incubated for 1 hr by Z'Lyte assay
Value Kind: pIC50
// pIC50 is dimensionless: -log10 of concentration (M)

Recorded pIC50 for `COc1cc2c(cc1OC)CN(CC(=O)Nc1ccc3c(c1)/C(=C/c1cnc[nH]1)C(=O)N3)CC2` , please?
6.00

// data source = ChEMBL document CHEMBL3734692
